Data provenance is PubChem BioAssay (NCATS).

Tested on: CP191
Method description: qHTS profiling for inhibitors of Plasmodium falciparum proliferation (AID 504749); note: nearly all actives have a fitted effect of over 60% in size
Details: P. falciparum in erythrocytes, SYBR Green DNA, 72 h; series mostly up to 28.7 µM
Records with an inconclusive call do not appear. Activity calls are given as the source filed them. Calls come from the whole dose curve; as a rule, active = well fitted inhibition curve with a large enough effect; inconclusive = small, poorly fitted or top-dose-only effect; inactive = flat fitted curve, though single readings scatter.
Thanks in advance; please answer with one of these: active, inactive

Prompt line: Field: outcome | Entry: O=C1CCCCC1CN1CCCCC1 (configuration not stated)
Response line: inactive

Prompt line: Field: outcome | Entry: CCCCCCCCCC(=O)O[C@H]1CC[C@H]2[C@@H]3CCC4=CC(=O)CC[C@]4(C)[C@H]3CC[C@]12C
Response line: inactive

Prompt line: Field: outcome | Entry: ClC=C(Cl)Cl
Response line: inactive

Prompt line: Field: outcome | Entry: O=[N+]([O-])c1ccccc1
Response line: inactive

Prompt line: Field: outcome | Entry: c1ccc2sc(SNC3CCCCC3)nc2c1
Response line: inactive

Prompt line: Field: outcome | Entry: C=CCN(C1=NCCN1)c1c(Cl)cccc1Cl
Response line: inactive

Prompt line: Field: outcome | Entry: Clc1ccc(C2(Cn3cncn3)OCCO2)c(Cl)c1
Response line: inactive

Prompt line: Field: outcome | Entry: CCC1(C)CC(=O)NC(=O)C1
Response line: inactive

Prompt line: Field: outcome | Entry: N#CN
Response line: inactive

Prompt line: Field: outcome | Entry: CC(C)(O)C1C2OC(=O)C1C1(O)CC3OC34C(=O)OC2C14C (configuration not stated)
Response line: inactive

Prompt line: Field: outcome | Entry: Oc1cc(Cl)c(Cl)cc1Cl
Response line: inactive

Prompt line: Field: outcome | Entry: O=C1CCO1
Response line: inactive

Prompt line: Field: outcome | Entry: O=C(CS(=O)C(c1ccccc1)c1ccccc1)NO (configuration not stated)
Response line: inactive

Prompt line: Field: outcome | Entry: O=c1[nH]c(=O)n(Cl)c(=O)n1Cl
Response line: inactive

Prompt line: Field: outcome | Entry: O=C(OCCN1CCCCC1)C(O)(c1ccccc1)c1ccccc1
Response line: inactive

Prompt line: Field: outcome | Entry: O=C(NCNC(=O)NC1C(=O)NC(=O)N1CO)NC1C(=O)NC(=O)N1CO (configuration not stated)
Response line: inactive

Prompt line: Field: outcome | Entry: C/C(=C\c1csc(C)n1)[C@@H]1C[C@@H]2O[C@]2(C)CCC[C@H](C)[C@H](O)[C@@H](C)C(=O)C(C)(C)[C@@H](O)CC(=O)O1
Response line: active

Prompt line: Field: outcome | Entry: F/C(COc1ccc2c(c1)[nH]c1ccccc12)=C1/CN2CCC1CC2
Response line: active

Prompt line: Field: outcome | Entry: O=C1C2CC=CCC2C(=O)N1SC(Cl)(Cl)Cl (configuration not stated)
Response line: inactive

Prompt line: Field: outcome | Entry: O=P(O)(O)C(Cl)(Cl)P(=O)(O)O
Response line: inactive

Prompt line: Field: outcome | Entry: C#CC(C)(O)CC (configuration not stated)
Response line: inactive

Prompt line: Field: outcome | Entry: CCCN1CCCC2Cc3[nH]ncc3CC21 (configuration not stated)
Response line: inactive
